- Assay Comment: In vivo formation of NAFB1 and NAHFB1 in rat kidney and liver (HPLC-ESI-MS/MS)
- Design: unit not given here
- Experimental Parameters: Kidney; treatment FB1 1 mg/kg BW ip, 5 days
Give N-acyl-derivative in tissue sample, analysis a for every item shown.

*Q* Any idea what its N-acyl-derivative in tissue sample, analysis a is? The compound is CCCCCCCCC=CCCCCCCCCCCCCCC(=O)NC(C)C(O)CC(O)CCCCC(O)CC(C)CC(OC(=O)CC(CC(=O)O)C(=O)O)C(OC(=O)CC(CC(=O)O)C(=O)O)C(C)CCCC (centres unmarked) [FB1C24:1]
*A* 4,1

*Q* And the next one, CCCCCCCCCCCCCCCCCCCCCCCC(=O)NC(C)C(O)CC(O)CCCCC(O)CC(C)CC(OC(=O)CC(CC(=O)O)C(=O)O)C(OC(=O)CC(CC(=O)O)C(=O)O)C(C)CCCC (centres unmarked) [FB1C24:0] ?
*A* 3,0

Please go through the list and note N-acyl-derivative in tissue sample, analysis a for each compound.
1. CCCCCCCCCCCCCCCCCCCCCC(=O)NC(C)C(O)CC(O)CCCCC(O)CC(C)CC(OC(=O)CC(CC(=O)O)C(=O)O)C(OC(=O)CC(CC(=O)O)C(=O)O)C(C)CCCC (centres unmarked) [FB1C22:0]
2. CCCCCCCCCCCCCCCCCCCC(=O)NC(C)C(O)CC(O)CCCCC(O)CC(C)CC(OC(=O)CC(CC(=O)O)C(=O)O)C(OC(=O)CC(CC(=O)O)C(=O)O)C(C)CCCC (centres unmarked) [FB1C20:0]
3. CCCCCCCCCCCCCCCCCCCCCC(=O)N[C@@H](C)[C@@H](O)C[C@H](O)CCCC[C@@H](O)C[C@H](C)C[C@H](O)[C@H](O)[C@H](C)CCCC [HFB1C22:0]

*A*
1. 0,9
2. 0,2
3. 0,0

These entries and their values trace back to paper PMC4298654.
